- Test system: MCF7 cells
- assay_name: Internalization of labeled peptides, flow cytometry, MCF7
- Format: cell-based, human
- measurement_conditions: read-out: FC50 (peptide concentration to detect fluorescence in 50% of cells), MCF7, 1 h, serum free medium, 0.06–2 μM labeled peptide, 10 000 cells, at least two independent experiments
reported_property: EC50 (nM)
Enter your answer as a number in nM; do not include the unit.

EC50 for CQAPLYKKIIKKLLESGGSGGAPLYKKIIKKLLCES* A488 (sidechain bridge or staple) [cPF4PD-A488] is 650

###

- assay_name: Cell toxicity, resazurin, HEK293
- Assay type: cell-based
- measurement_conditions: human, HEK293 embryonic kidney cells
Bridge positions count the residues as written; N and C are the ends. Ends that are not written are not given here.
CC50 at 24 h for assorted substances
All answers are understood in µM, so give the number only.

CGGPLYKKIIKKLLESIIKKGGSGGSGGLTFEHYWAQLTGGC-NH2 (disulfide 1-42) [cPF4Pext_pDI] | 19.1
LQAPLTFEHYWALLTSGGSGGAPLYKKIIKKLLES-NH2 [PF4P_pDI] | 27.5

Here's the next entry for you.
Field CC50 at 24 h (entry LQAPLYKKIIKKLLESGGSGGAPLYKKIIKKLLES-NH2 [PF4PD] ) reads 13.7

###

- Tested on: MM96L melanoma cells
- assay_name: Cell toxicity, resazurin, MM96L
- Type: cell-based, human
- measurement_conditions: p53 WT, 24 h, 0.25–32 μM peptide, mean ± SD, three independent experiments
Bridge positions count the residues as written; N and C are the ends. Ends that are not written are not given here.
reported_property: CC50, MM96L (µM)
Give just the numeric value; µM need not be written.

CGGPLYKKIIKKLLESIIKKGGSGGSGGLTFEHYWAQLTGGC-NH2 (disulfide 1-42) [cPF4Pext_pDI] | 2.5

get_value(item= LQAPLTFEHYWALLTSGGSGGAPLYKKIIKKLLES-NH2 [PF4P_pDI] , readout=CC50, MM96L) returns 13.2

CC50, MM96L for LQAPLYKKIIKKLLESGGSGGAPLYKKIIKKLLES-NH2 [PF4PD] is 1.6

###

# CC50 at 24 h listing for each entry below
- assay_name: Cell toxicity, resazurin, PBMCs
- Format: cell-based
- measurement_conditions: human, peripheral blood mononuclear cells (PBMCs)
Bridge positions count the residues as written; N and C are the ends. Ends that are not written are not given here.
Give the value, in units of µM, as a plain number.

CGGPLYKKIIKKLLESIIKKGGSGGSGGLTFEHYWAQLTGGC-NH2 (disulfide 1-42) [cPF4Pext_pDI] | 4.3

In plain terms, LQAPLYKKIIKKLLESGGSGGAPLYKKIIKKLLES-NH2 [PF4PD] has a documented CC50 at 24 h of 14

###

Quick reference for remaining at 24 h, 50 μM among some substances
- assay_name: Stability of peptides in human serum
- Type: in vitro ADME
- measurement_conditions: 25% (v/v) human serum, pH 7.5
Ends that are not written are not given here.
Give just the number in %; leave the unit off.

LQAPLTFEHYWALLTSGGSGGAPLYKKIIKKLLES-NH2 [PF4P_pDI] | 60

remaining at 24 h, 50 μM measured on LQAPLYKKIIKKLLESGGSGGAPLYKKIIKKLLES-NH2 [PF4PD] = 20
